Biological target: T1, rhesus monkey CD22-ECD-His protein (rhesus monkey, UniProt H9G1X2 18-686)
T1 construct: extracellular domain; also called monkey CD22 protein
T1 sequence: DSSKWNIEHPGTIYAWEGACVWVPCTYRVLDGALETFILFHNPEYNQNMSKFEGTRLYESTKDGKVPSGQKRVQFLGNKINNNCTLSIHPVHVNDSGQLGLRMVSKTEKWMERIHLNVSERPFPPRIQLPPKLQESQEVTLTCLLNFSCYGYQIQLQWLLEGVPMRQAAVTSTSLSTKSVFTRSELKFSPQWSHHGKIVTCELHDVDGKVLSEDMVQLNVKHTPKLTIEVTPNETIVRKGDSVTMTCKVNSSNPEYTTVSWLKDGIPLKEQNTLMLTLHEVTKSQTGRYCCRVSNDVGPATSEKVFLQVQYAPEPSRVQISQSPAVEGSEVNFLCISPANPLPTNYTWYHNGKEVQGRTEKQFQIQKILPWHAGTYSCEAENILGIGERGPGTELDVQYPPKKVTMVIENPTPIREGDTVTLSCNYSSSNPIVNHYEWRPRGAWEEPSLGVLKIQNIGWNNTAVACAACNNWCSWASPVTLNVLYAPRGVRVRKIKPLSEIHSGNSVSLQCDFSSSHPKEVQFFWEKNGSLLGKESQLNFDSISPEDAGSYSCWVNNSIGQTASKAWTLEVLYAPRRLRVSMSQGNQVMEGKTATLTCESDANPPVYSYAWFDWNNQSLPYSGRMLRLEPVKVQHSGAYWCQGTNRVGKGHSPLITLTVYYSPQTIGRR
Assay: SPR (Biacore), antibody captured on Protein A chip, rhesus CD22 in solution
Reported Kd values for the following binders.
measured_endpoint: Kd (nM)

INSERT INTO assay_data (binder, reported_value) VALUES
  ('F2.99.1 (antibody, human IgG1, lambda, V domains shown, Chimeric IgG1 lambda) VH: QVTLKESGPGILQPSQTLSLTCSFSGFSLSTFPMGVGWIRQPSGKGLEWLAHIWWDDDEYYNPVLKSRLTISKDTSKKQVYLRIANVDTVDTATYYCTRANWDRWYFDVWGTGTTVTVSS VL: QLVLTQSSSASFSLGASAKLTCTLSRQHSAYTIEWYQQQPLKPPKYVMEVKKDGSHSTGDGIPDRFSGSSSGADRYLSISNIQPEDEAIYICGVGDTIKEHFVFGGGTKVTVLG', 14.5),
  ('F1.216.2 (antibody, human IgG1, kappa, V domains shown, Chimeric IgG1 kappa) VH: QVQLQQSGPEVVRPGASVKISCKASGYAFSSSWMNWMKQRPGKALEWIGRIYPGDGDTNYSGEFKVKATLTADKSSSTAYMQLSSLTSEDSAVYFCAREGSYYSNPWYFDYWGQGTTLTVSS VL: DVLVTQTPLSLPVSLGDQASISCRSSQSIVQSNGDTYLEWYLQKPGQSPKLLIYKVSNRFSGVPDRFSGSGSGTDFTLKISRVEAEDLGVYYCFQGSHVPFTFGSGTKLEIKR', 7.18),
  ('F1.120.15 (antibody, human IgG1, kappa, V domains shown, Chimeric IgG1 kappa) VH: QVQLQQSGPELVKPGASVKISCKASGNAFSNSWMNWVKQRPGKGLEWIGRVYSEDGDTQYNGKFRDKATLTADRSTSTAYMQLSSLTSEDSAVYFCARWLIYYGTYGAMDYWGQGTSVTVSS VL: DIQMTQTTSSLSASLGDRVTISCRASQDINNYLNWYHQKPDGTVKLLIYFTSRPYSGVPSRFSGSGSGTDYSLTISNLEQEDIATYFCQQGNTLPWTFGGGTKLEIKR', 15.1);
